Target: T1, membrane-associated human TL1A on transfected HEK293 cells (human, UniProt O95150 1-251)
T1 construct: whole, on cells
T1 sequence (looked up): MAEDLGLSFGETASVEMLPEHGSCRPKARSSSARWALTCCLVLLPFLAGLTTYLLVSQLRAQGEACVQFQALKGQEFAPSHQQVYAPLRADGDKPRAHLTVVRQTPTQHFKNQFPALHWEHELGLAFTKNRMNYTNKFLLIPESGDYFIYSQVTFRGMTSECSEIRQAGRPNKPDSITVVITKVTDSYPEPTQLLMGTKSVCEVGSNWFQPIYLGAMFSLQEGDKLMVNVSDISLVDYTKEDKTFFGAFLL
Assay: flow cytometry, HEK293 cells transfected with human TL1A
measurement-kind: binding result

# binder, measurement-kind, observed-value
rows = [
    ("Clone XL3-10 Fab (Fab, V domains shown, Fab) VH: QVQLVQSGAEVKKPGASVKVSCKASGFDIQDTYMHWVRQAPGQGLEWMGRIDPASGHTKYDPKFQGRATITTDTSASTAYLQLSSLRSEDTAVYYCARSGGLPDFWGQGTTVTVSS VL: EIVLTQSPGTLSLSPGERATLSCRASSSVSYMYWYQQKPGQAPRLLIYATSNLASGIPDRFSGSGSGTDFTLTISRLEPEDFAVYYCQQWSGNPRSFGGGTKLEIK", "binding result", "binds"),
    ("Clone E1 Fab (Fab, V domains shown, Fab) VH: QVQLVQSGAEVKKPGASVKVSCKASGFDIQDTYMHWVRQAPGQGLEWMGRIEPASGHLKYDPKFQERVTMTRDTSTSTVYMELSSLRSEDTAVYYCARSGGLPDKWGQGTTVTVSS VL: EIVLTQSPGTLSLSPGERATLSCGASSSVSYMYWYQQKPGQAPRLLIYATSNLASGIPDRFSGSGSGTDFTLTISRLEPEDFAVYYCQQWEGNPRTFGGGTKLEIK", "binding result", "binds"),
    ("Clone X-V Fab (Fab, V domains shown, Fab) VH: QVQLVQSGAEVKKPGASVKVSCKASGFDIQDTYMHWVRQAPGQGLEWMGRIDPASGHTKYDPKFQVRATITTDTSASTAYLQLSSLRSEDTAVYYCARSGGLPDFWGQGTTVTVSS VL: EIVLTQSPGTLSLSPGERATLSCRASSSVSYMYWYQQKPGQAPRLLIYATSNLASGIPDRFSGSGSGTDFTLTISRLEPEDFAVYYCQQWSGNPRTFGGGTKLEIK", "binding result", "binds"),
]

The values you see were collected from patent US20240368263A1.
